- Target Or Test System: T1, human PD-L1 (hPD-L1) expressed on transfected 300.19 cells (human, UniProt Q9NZQ7 19-290)
- T1 construct: whole, on cells; also called B7H1
- T1 sequence (Q9NZQ7 19-290): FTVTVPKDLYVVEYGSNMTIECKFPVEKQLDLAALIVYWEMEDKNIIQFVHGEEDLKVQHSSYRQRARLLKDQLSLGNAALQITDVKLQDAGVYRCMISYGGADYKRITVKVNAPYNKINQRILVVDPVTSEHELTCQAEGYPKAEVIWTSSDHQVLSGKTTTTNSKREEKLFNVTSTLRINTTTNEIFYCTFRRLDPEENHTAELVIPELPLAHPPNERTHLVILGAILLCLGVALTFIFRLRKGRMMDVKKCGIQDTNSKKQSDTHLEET
- Method Description: FACS, hPD-L1 300.19 cells, assay 2, Ab 0.01 ug/ml
Listing of recorded Cells PE-A Mean by entry.
Answer format: numeric, MFI implied, no suffix.

• Ab-50 (antibody, V domains shown, also called huPD-L1 Ab # 50) VH: QVQLVQSGGEVKKPGASVKVSCKASGYTLSSHGITWVRQAPGQGLEWMGWISAHNGHASNAQKVEDRVTMTTDTSTNTAYMELRSLTADDTAVYYCARVHAALYYGMDVWGQGTLVTVSS VL: QSVLTQPPSVSVAPGQTARITCGGNNIGSKGVHWYQQKPGQAPVLVVYDDSDRPSGIPERFSGSNSGNTATLTISRVEAGDEADYYCQVWDSSSDHWVFGGGTKLTVL = 5200
• Ab-31 (antibody, V domains shown, also called huPD-L1 Ab # 31) VH: QVQLVQSGAEVKKPGATVKVSCKVFGDTFRGLYIHWVRQAPGQGLEWMGGIIPIFGTANYAQKFQGRVTITTDESTSTAYMELSSLRSEDTAVYYCASGLRWGIWGWFDPWGQGTLVTVSS VL: EIVLTQSPATLSLSPGERATLSCRASQSIGNSLAWYQQKPGQAPRLLMYGASSRATGIPDRFSGSGAGTDFTLTISSLEPEDFATYYCQQHTIPTFSFGPGTKVEVK = 6830

For record Ab-52 (antibody, V domains shown, also called huPD-L1 Ab # 52) VH: QVQLQESGGGVVQPGRSLRLSCSASGFTFSRHGMHWVRQAPGKGLEWVAVISHDGSVKYYADSMKGRFSISRDNSNNTLYLQMDSLRADDTAVYYCARGLSYQVSGWFDPWGQGTLVTVSS VL: NFMLTQPHSVSESPGKTVTISCTRSSGSIASNYVQWYQQRPGSAPTTVIYEDNQRPSGVPDRFSGSIDSSSNSASLTISGLKTEDEADYYCQSYDSTTPSVFGGGTKLTVL the listed Cells PE-A Mean is 2690
